These data points were gathered from the NIST ThermoML archive (doi:10.1016/j.jct.2007.09.007).

condition-summary: 288.15 K; 101.33 kPa; Liquid
Kindly state mass density for each of the entries shown.
Give the value, in units of kg/m3, as a plain number.

What mass density value was documented for this molecule, C1COCCO1 ? 1038.78

Do the same for CC(C)OC(C)C please 728.82

Do the same for CC#N please 787.38

Do the same for C1CCOC1 [tetrahydrofuran] please 892.86

* * *

condition-summary: 303.15 K; 101.33 kPa; Liquid
Kindly state mass density for each of the entries shown.
Give the value, in units of kg/m3, as a plain number.

What mass density value was documented for this compound, C1CCOC1 [tetrahydrofuran] ? 876.54

Do the same for CC(C)OC(C)C please 713.21

Do the same for CC#N please 771.19

Do the same for C1COCCO1 please 1021.84
